targetEntity: a3b4 nAChRs (Homo sapiens, UniProt P30926+P32297)
Sequence (P30926 22-498): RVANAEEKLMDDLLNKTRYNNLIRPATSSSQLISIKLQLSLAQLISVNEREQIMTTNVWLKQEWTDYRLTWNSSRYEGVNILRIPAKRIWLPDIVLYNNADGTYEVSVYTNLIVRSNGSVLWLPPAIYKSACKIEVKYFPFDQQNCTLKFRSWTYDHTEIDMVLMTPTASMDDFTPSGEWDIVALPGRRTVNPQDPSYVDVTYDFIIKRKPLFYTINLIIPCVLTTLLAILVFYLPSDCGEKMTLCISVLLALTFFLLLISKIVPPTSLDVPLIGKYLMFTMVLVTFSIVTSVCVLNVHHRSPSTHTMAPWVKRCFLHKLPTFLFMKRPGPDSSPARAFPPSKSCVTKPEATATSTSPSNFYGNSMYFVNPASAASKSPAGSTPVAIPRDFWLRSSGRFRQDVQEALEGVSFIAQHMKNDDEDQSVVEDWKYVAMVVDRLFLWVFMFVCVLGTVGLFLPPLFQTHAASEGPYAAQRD
Sequence (P32297 32-505): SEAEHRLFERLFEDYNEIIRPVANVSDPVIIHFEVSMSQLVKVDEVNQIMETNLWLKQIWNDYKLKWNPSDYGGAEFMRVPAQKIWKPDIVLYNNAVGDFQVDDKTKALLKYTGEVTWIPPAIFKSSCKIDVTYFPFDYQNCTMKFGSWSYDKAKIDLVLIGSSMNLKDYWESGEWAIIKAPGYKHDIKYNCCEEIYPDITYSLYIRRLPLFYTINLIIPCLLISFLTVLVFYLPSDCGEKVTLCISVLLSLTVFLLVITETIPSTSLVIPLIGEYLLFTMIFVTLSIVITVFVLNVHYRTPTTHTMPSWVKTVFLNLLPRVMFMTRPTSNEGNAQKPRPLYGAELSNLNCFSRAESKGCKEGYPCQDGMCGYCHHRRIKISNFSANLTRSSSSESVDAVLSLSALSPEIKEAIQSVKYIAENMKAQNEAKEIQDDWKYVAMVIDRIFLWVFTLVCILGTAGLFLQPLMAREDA
assayRemarks: FLIPR Ca+2 flux assay, epibatidine-induced calcium response, A3B4-HEK cells
Assay type: cell-based
property: IC50 (µM)
# value in µM; strip the unit string

Sample CC[C@H]1CC2C[C@H]3c4[nH]c5ccc(O)cc5c4CCN(C2)C13 [Noribogaine, 12-hydroxyibogamine] , system: a3b4 nAChRs (Homo sapiens, UniProt P30926+P32297). Its IC50 is 18

###

targetEntity: α3β4 nicotinic receptor subtype (Homo sapiens, UniProt P30926+P32297)
Construct: SH-SYSY cells predominantly express the α3β4 nicotinic receptor subtype; endogenous in cells; host or cells: SH-SYSY (SH-SY5Y) cells
Sequence (P32297 32-505): as above
Sequence (P30926 22-498): as the sequence (P30926 22-498) above
assayRemarks: cell-based
reportedConditions: IC50 (uM) Caliper, inhibition of epibatidine-induced calcium response, Caliper
property: IC50 (µM)
Return type: number; implicit unit µM.

Sample CC[C@H]1CC2C[C@H]3c4[nH]c5ccc(O)cc5c4CCN(C2)C13 [Noribogaine, 12-hydroxyibogamine] ; IC50 observed: 1
